// data source = patent US7186695B2

- experimental.protocol: Interaction of GSAO with synthetic, peptide and protein dithiols (summary)
- Type: binding
- experimental.conditions: units printed within the range; read-out: dissociation constants, range over all dithiols
attribute.measured: Kd

Prompt: Using the record for NC(CCC(=O)NC(CSCC(=O)Nc1ccc([As]=O)cc1)C(=O)NCC(=O)O)C(=O)O (stereo not shown) , report its Kd.
Completion: 130 to 1400 nM

====

- experimental.protocol: Binding of GSAO to dithiols, loss of thiols in DTNB assay
- experimental.conditions: ring size 5; errors are 1 SD; read-out: Dissociation Constant
attribute.measured: Kd
Returns: string containing the number followed by the unit.

Prompt: Using the record for NC(CCC(=O)NC(CSCC(=O)Nc1ccc([As]=O)cc1)C(=O)NCC(=O)O)C(=O)O (stereo not shown) , report its Kd.
Completion: 0.13 µM

====

- Test system: BCE cells
- experimental.protocol: Proliferation and viability of cultured cells, 72 hr, cell count
- Type: cell-based, bovine
- experimental.conditions: Bos taurus, 72 h, BCE, 5% BCS + 1 ng/mL FGF-2, 72 hr; read-out: Proliferation IC50
- Protocol: FIG. 18. Inhibition of proliferation and reduction in viability of BCE cells by GSAO. 15,000 (part A and B) or 50,000 (part C and D) BCE cells per well were seeded into gelatinised 24-well culture plates and allowed to attach for 24 hr (part A, B and D) or 72 hr (part C). […] Cells were cultured for 72 hr in parts A, B and C or for discrete times up to 48 hr in part D and then dispersed and counted. […]
pIC50: −log10 of the molar value.
attribute.measured: pIC50

Prompt: Using the record for NC(CCC(=O)NC(CSCC(=O)Nc1ccc([As]=O)cc1)C(=O)NCC(=O)O)C(=O)O (stereo not shown) [GSAO] , report its pIC50.
Completion: ~7.00

====

- System: 3T3 fibroblasts
- experimental.protocol: Proliferation and viability of cultured cells, 72 hr, cell count
- Type: cell-based, murine
- experimental.conditions: Mus musculus, Fibroblast; 3T3, 5% FCS, 72 hr
pIC50: −log10 of the molar value.
attribute.measured: pIC50

Prompt: Report pIC50 for NC(CCC(=O)NC(CSCC(=O)Nc1ccc([As]=O)cc1)C(=O)NCC(=O)O)C(=O)O (stereo not shown) [GSAO] tested on 3T3 fibroblasts.
Completion: ~4.40

====

- system.name: TrpCysGlyHisCysLys (PDI active site hexapeptide) (Homo sapiens, UniProt P07237)
- Construct: purchased Auspep, Parkville, Australia; host or cells: synthetic peptide
- experimental.protocol: Binding of GSAO to dithiols, loss of thiols in DTNB assay
- experimental.conditions: Dissociation Constant, ring size 15; errors are 1 SD
attribute.measured: pKd
The value called pKd is obtained by taking minus log10 of the concentration in mol/L.

Prompt: Using the record for NC(CCC(=O)NC(CSCC(=O)Nc1ccc([As]=O)cc1)C(=O)NCC(=O)O)C(=O)O (stereo not shown) , report its pKd.
Completion: 6.06

====

- Tested on: BCE cells
- experimental.protocol: Proliferation and viability of cultured cells, 72 hr, cell count
- Assay type: cell-based, bovine
- experimental.conditions: Bos taurus, 72 h, BCE, 5% BCS + 10 ng/mL VEGF, >90% confluent, 72 hr; read-out: Viability IC50
attribute.measured: IC50

Prompt: Using the record for NC(CCC(=O)NC(CSCC(=O)Nc1ccc([As]=O)cc1)C(=O)NCC(=O)O)C(=O)O (stereo not shown) [GSAO] , report its IC50.
Completion: ~3000 nM
